Biological target: T1, EsCas13d, nuclease-dead (Eubacterium siraeum, UniProt B0MS50, R295A;H300A;R849A;H854A)
T1 sequence: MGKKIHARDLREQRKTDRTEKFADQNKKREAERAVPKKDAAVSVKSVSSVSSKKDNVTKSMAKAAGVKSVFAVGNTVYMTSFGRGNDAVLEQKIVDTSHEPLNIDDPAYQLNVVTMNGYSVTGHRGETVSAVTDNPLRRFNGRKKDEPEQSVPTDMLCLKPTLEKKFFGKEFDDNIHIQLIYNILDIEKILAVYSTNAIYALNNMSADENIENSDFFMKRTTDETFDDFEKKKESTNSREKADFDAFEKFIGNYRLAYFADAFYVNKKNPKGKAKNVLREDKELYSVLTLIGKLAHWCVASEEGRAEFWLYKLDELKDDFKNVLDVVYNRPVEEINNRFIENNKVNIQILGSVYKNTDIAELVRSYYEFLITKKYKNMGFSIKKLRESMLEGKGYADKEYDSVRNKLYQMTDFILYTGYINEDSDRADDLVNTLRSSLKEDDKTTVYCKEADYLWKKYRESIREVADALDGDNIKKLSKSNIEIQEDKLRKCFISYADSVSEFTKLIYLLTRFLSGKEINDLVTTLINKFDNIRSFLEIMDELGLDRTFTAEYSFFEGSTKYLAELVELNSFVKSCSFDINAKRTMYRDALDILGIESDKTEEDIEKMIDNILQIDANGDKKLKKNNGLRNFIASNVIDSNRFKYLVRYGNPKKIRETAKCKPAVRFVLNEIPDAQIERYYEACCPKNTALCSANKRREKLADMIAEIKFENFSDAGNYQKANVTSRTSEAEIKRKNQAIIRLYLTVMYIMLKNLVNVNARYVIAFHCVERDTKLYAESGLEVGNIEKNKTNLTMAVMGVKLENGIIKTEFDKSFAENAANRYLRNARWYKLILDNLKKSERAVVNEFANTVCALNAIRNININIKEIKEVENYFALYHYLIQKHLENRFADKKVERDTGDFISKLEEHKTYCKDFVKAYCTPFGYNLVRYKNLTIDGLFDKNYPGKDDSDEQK
Assay: crRNA (strand 1, pre-loaded); Mg2+; 40 mM Tris-HCl pH 7.5, 150 mM NaCl, 6 mM MgCl2, 1 mM DTT, 0.1% Tween-20, 0.2 mg/ml BSA; 25 C; 10 min per concentration, then washed
Conditions: tags: His6-TwinStrep-SUMO cleaved; N-terminal SNAP kept (SNAP-Surface 488); label: 3' end held by stalled T7 RNA polymerase
Listed here: items and their measured Kd.

- BINDER: "target 1 U3A,C21A (mixed) RNA 1: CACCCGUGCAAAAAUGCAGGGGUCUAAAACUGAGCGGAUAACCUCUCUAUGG RNA 2: GGGAAUGGAUCCACAUCUACGAAUUCGUACAAUAGAGAGGUUAUCCGCACACCGAGAUCGGAAGAGCACACGU"
  Kd: "~90 nM"
- BINDER: "target 1 MT 5'PFS AGA 3'PFS CAA (mixed) RNA 1: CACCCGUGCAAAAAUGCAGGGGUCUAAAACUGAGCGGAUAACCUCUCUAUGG RNA 2: GGGAAUGGAUCCACAUCUACGAAUUCAGACCAUAGAGAGGUUAUCCGCUCACAAAGAUCGGAAGAGCACACGU"
  Kd: "~37 nM"
- BINDER: "target 1 insC 3' of 16,insC 3' of 8 (mixed) RNA 1: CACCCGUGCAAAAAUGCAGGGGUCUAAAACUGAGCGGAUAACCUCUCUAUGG RNA 2: GGGAAUGGAUCCACAUCUACGAAUUCGUACCAUAGACGAGGUUAUCCCGCUCACCGAGAUCGGAAGAGCACACGU"
  Kd: "~90 nM"
